Item-by-item account of inhibition at 40 ppm
# Test system: Cladosporium cucumerinum
# assay_text: Mycelial growth test
# Type: cell-based
# details: Cladosporium cucumerinum, 72 h, CC, 40 ppm, read-out: Percent Fungus Growth Inhibition
attribute_measured: inhibition at 40 ppm (%)

[[record]]
compound = "CC(=O)c1cccc(Oc2nsnc(Cl)c2=O)c1 [Compound 48]"
experimental_value = 100

[[record]]
compound = "Cc1cccc(Oc2nsnc(Cl)c2=O)c1 [Compound 21]"
experimental_value = 85

[[record]]
compound = "CCCCOc1ccc(Oc2nsnc(Cl)c2=O)cc1 [Compound 6]"
experimental_value = 45

[[record]]
compound = "Cc1ccccc1Oc1nsnc(Cl)c1=O [Compound 22]"
experimental_value = 92

[[record]]
compound = "N#Cc1c(Cl)c(Cl)c(Cl)c(C#N)c1Cl [Chlorothalonil, reference compound]"
experimental_value = 96

[[record]]
compound = "O=C(Nc1ccccc1)Oc1ccc(Oc2nsnc(Cl)c2=O)cc1 [Compound 37]"
experimental_value = 52

[[record]]
compound = "CNC(=O)Nc1ccc(Oc2nsnc(Cl)c2=O)cc1 [Compound 28]"
experimental_value = 60

[[record]]
compound = "O=c1c(Cl)nsnc1Oc1cccc(Cl)c1 [Compound 13]"
experimental_value = 100

[[record]]
compound = "O=c1c(Cl)nsnc1Oc1ccccc1Br [Compound 34]"
experimental_value = 86

[[record]]
compound = "CC(C)(C)c1ccc(Oc2nsnc(Cl)c2=O)cc1 [Compound 4]"
experimental_value = 45

[[record]]
compound = "CC(=O)Nc1ccccc1Oc1nsnc(Cl)c1=O [Compound 43]"
experimental_value = 17

[[record]]
compound = "COc1ccc(Oc2nsnc(Cl)c2=O)cc1 [Compound 5]"
experimental_value = 100

[[record]]
compound = "O=c1c(Cl)nsnc1Oc1ccc(Cl)c(Cl)c1 [Compound 16]"
experimental_value = 75

[[record]]
compound = "O=C(OCc1ccccc1)Oc1ccc(Oc2nsnc(Cl)c2=O)cc1 [Compound 38]"
experimental_value = 26

[[record]]
compound = "Cc1ccc(Oc2nsnc(Cl)c2=O)c(Br)c1 [Compound 57]"
experimental_value = 78

[[record]]
compound = "O=C(O)c1ccc(Oc2nsnc(Cl)c2=O)cc1 [Compound 50]"
experimental_value = 100

[[record]]
compound = "O=c1c(Cl)nsnc1Oc1c(Cl)c(Cl)c(Cl)c(Cl)c1Cl [Compound 31]"
experimental_value = 69

[[record]]
compound = "O=c1c(Cl)nsnc1Oc1ccccc1 [Compound 2]"
experimental_value = 100

